SYSTEM_NAME: T1, apical domain of cynomolgus CD71 (cynomolgus, UniProt A0A2K5X958 189-383)
T1 construct: domain: apical domain; also called Cyno apical domain
EXPERIMENT_DESCRIPTION: primary ELISA; further: test concentration or dose not given here
Provide the reported RLU of each item.
One number for each entry, in RLU.

Use these answered entries as a reference point.
Lab book: RLU of CD71-binding FN3 domain of SEQ ID NO: 195 (designed binder) MSLPAPKNLIVSRVTEDSARLSWTAPDAAFDSFEIGYFENLYLGEAIVLTVPGSERSYDLTGLKPGTEYWVQIGGVKGSNWSAPLSAIFTT noted as 4.2e+06

binder CD71-binding FN3 domain of SEQ ID NO: 161 (designed binder) MSLPAPKNLVVSRVTEDSARLSWTAPDAAFDSFFIGYLEPQPPGEAIVLTVPGSERSYDLTGLKPGTEYNVTIQGVKGGFPSEPLVAHFTT , RLU observed: 6.09e+06

Noted for CD71-binding FN3 domain of SEQ ID NO: 205 (designed binder) MSLPAPKNLVVSRVTEDSARLSWTAPDAAFDSFEIGYFENLYLGEAIHLFVPGSERSYDLTGLKPGTEYNVTIQGVKGGFPSEPLIANFTT : its RLU reads 4.1e+06

The recorded RLU for CD71-binding FN3 domain of SEQ ID NO: 160 (designed binder) MSLPAPKNLVVSRVTEDSARLSWTAPDAAFDSFEIGYFENLYLGEAIVLTVPGSERSYDLTGLKPGTEYWVQIGGVKGGNWSVPLSAIFTT is 5.02e+06

Quick note, RLU for CD71-binding FN3 domain of SEQ ID NO: 203 (designed binder) MSLPAPKNLVVSRVTEDFARLSWTAPDAAFDSFEIAYWEQSYTGEAIVLTVPGSERSYDLTGLKPGTEYFVHIGGVKGGVWSTPLSAIFTT landed at 4.85e+06

Lab book: RLU of CD71-binding FN3 domain of SEQ ID NO: 201 (designed binder) MSLPAPKNLVVSRVTEDSARLSWTAPDAAFDSFEIAYFEGTFHGEAIVLFVPGSERSYDLTGLKPGTEYAVWIGGVKGGDYSRPLSAAFTT noted as 3.01e+06

Look at each binder and report its RLU.
1. CD71-binding FN3 domain of SEQ ID NO: 130 (designed binder) MSLPAPKNLVVSRVTEDSARLSWTAPDAAFDSFEIAYFERTWFGEAIVLTVPGSERSYDLTGLKPGTEYWVQIGGVKGGDWSAPLSAIFTT
2. CD71-binding FN3 domain of SEQ ID NO: 188 (designed binder) MSLPAPKNLVVSRVTEDSARLSWTAPDAAFDSFEIGYWENAYKGEAIVLTVPGSERSYDLTGLKPGTEYVVFIGGVKGGHGSQPLSAIFTT
3. CD71-binding FN3 domain of SEQ ID NO: 146 (designed binder) MSLPAPKNLVVSRVTEDSARLSWTAPDAAFDSFDIGYFENTYEGEAIVLTVPGSERSYDLTGLKPGTEYVVWIGGVKGGSYSSPLSAIFTT

1. 5e+06
2. 3.37e+06
3. 4.96e+06
